- target.or.system: CAAX prenyl protease 2 (Homo sapiens, UniProt Q9Y256)
- Sequence (Q9Y256 whole entry): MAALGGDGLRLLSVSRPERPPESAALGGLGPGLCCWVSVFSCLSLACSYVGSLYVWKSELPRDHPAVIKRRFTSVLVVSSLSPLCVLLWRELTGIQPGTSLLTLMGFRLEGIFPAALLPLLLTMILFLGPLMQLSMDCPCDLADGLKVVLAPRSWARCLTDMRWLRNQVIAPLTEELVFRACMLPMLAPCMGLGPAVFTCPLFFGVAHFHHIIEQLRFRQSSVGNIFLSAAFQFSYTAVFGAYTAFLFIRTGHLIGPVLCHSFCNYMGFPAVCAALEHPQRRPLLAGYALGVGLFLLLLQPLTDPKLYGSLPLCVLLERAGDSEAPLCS
pIC50: −log10 of the molar value.
Below, each of the compounds is paired with its reported pIC50 value.
measured.metric: pIC50

[[record]]
compound = "CC[C@@]1(C)CCC[C@]2(C)[C@H]3C[C@H](OC(=O)CC(O)C(C)C)[C@]4(C)C=C(C(C)=O)[C@H](O)C[C@H]4[C@]3(C)CC[C@@H]12 (some centres not stated)"
numeric_readout = 4.13

[[record]]
compound = "CCC(O)CC(=O)O[C@H]1C[C@@H]2[C@@]3(C)CCC[C@](C)(CC)[C@@H]3CC[C@@]2(C)[C@@H]2C=CC3=C(C(=O)OC3(C)O)[C@@]12C (some centres not stated)"
numeric_readout = 4.77

